System: goosegrass (Eleusine indica)
test: Test A1 preemergence, goosegrass
Assay type: in vivo
condition label: 31 g ai/ha, 0 to 100 scale (0 no effect, 100 complete control)
So basically, if Plant response rating, Goosegrass comes in under 30 it's True, and if it's 30 or more it's False.

Here are 2 molecules together with their reported answers.
Query block: Given CCOc1cccc2c1C(=O)N(c1cc(N(COC(=O)C(C)(C)C)S(=O)(=O)Cl)c(C)cc1C)C2 , is recorded Plant response rating, Goosegrass strictly lower than 30?
Result block: True

Query block: Given CCOC(=O)N(c1cc(C(=O)N2CCOCC2)c(C)c(C)c1C)S(=O)(=O)C(F)(F)F , is recorded Plant response rating, Goosegrass strictly lower than 30?
Result block: False

***
Query block: Given CCOC(=O)N(c1cc(C(=O)N2CCC(F)(F)CC2)c(C)cc1C)S(=O)(=O)C(F)(F)F , is recorded Plant response rating, Goosegrass strictly lower than 30?
Result block: False

Query block: Given CCOC(=O)N(c1cc(C(=O)N2CCCCC2)c(C)c(C)c1C)S(=O)(=O)C(F)(F)F , is recorded Plant response rating, Goosegrass strictly lower than 30?
Result block: False

Query block: Given Cc1c(C(=O)N2CCOCC2)cc(N(COC(=O)C(C)(C)C)S(=O)(=O)C(F)(F)F)c(C)c1C , is recorded Plant response rating, Goosegrass strictly lower than 30?
Result block: False

----------
Some molecules, each annotated with its measured Plant response rating, Wheat.
Tested on: wheat (Triticum aestivum)
test: Test A1 preemergence, wheat
Assay type: in vivo
condition label: 31 g ai/ha, 0 to 100 scale (0 no effect, 100 complete control)
Please give the numeric answer without any surrounding text.

Query block: Look up Plant response rating, Wheat with wheat (Triticum aestivum) for this molecule: CCC1ON=C(c2cc(N(C(=O)OCC(C)C)S(=O)(=O)C(F)(F)F)c(C)cc2C)C1CC (stereo not shown)
Result block: 0

Query block: Look up Plant response rating, Wheat with wheat (Triticum aestivum) for this molecule: Cc1cc(C)c(N(S(=O)(=O)C(F)(F)F)S(=O)(=O)C(F)(F)F)cc1N1CCC2(CCC(C(F)(F)F)CC2)C1=O (stereo not shown)
Result block: 0

Query block: Look up Plant response rating, Wheat with wheat (Triticum aestivum) for this molecule: Cc1c(C(=O)N2CCC(Cl)CC2)cc(N(COC(=O)C(C)(C)C)S(=O)(=O)C(F)(F)F)c(C)c1C
Result block: 0

Query block: Look up Plant response rating, Wheat with wheat (Triticum aestivum) for this molecule: Cc1cc(C)c(N(COC(=O)C(C)(C)C)S(=O)(=O)C(F)(F)F)cc1C(=O)N1CCC(C)CC1
Result block: 0

Query block: Look up Plant response rating, Wheat with wheat (Triticum aestivum) for this molecule: Cc1cc(C)c(C2=NOC(C(C)C)C2)cc1NS(=O)(=O)C(F)(F)F (stereo not shown)
Result block: 40

Query block: Look up Plant response rating, Wheat with wheat (Triticum aestivum) for this molecule: Cc1c(NS(=O)(=O)C(F)(F)F)cc(C(=O)N(C)C)c(C)c1Cl
Result block: 0

Okay, now this molecule:
Query block: Look up Plant response rating, Wheat with wheat (Triticum aestivum) for this molecule: CCOC(=O)N(c1cc(C(=O)N2CCC(F)(F)CC2)c(C)cc1C)S(=O)(=O)C(F)(F)F
Result block: 10

----------
Tested on: Oat, Wild (wild oat, Avena fatua)
test: Test A1 postemergence, Oat, Wild
Type: in vivo
condition label: Postemergence, 125 g ai/ha; 0 to 100 scale
Think of 10 as a floor: if Plant response rating, Oat, Wild stands on it or above, it is Yes; beneath it, No.

Here are 4 compounds together with their reported answers.
Query block: Answer whether Plant response rating, Oat, Wild of Cc1cc(C)c(N(COC(=O)C(C)(C)C)S(=O)(=O)C(F)(F)F)cc1C1=NOC2OCCC12 (centres unmarked) is greater than or equal to 10.
Result block: Yes

Query block: Answer whether Plant response rating, Oat, Wild of Cc1c(NS(=O)(=O)C(F)(F)F)cc(C2=NOC3CCCC23)c(C)c1C (centres unmarked) is greater than or equal to 10.
Result block: No

Query block: Answer whether Plant response rating, Oat, Wild of Cc1c(NS(=O)(=O)C(F)(F)F)cc(C(=O)N2CCC(C)CC2)c(C)c1C is greater than or equal to 10.
Result block: No

Query block: Answer whether Plant response rating, Oat, Wild of CCC1ON=C(c2cc(N(COC(=O)C(C)(C)C)S(=O)(=O)C(F)(F)F)c(C)cc2C)C1CC (centres unmarked) [Compound 344] is greater than or equal to 10.
Result block: Yes

Now for another entry.
Query block: Answer whether Plant response rating, Oat, Wild of CCOC(=O)N(c1cc(C(=O)N2CCOCC2)c(C)cc1C)S(=O)(=O)C(F)(F)F is greater than or equal to 10.
Result block: Yes

----------
System: kochia (Bassia scoparia)
test: Test A preemergence, kochia
Type: in vivo
condition label: Preemergence, 500 g ai/ha; visual injury on 0 to 100 scale (0 no effect, 100 complete control), approximately 10 days
Some molecules, each annotated with its measured Kochia plant response rating.
Please give the numeric answer without any surrounding text.

Example entries begin here.
Query block: Given the molecule COC(=O)N(c1cc(N2CCC3(CCCCC3)C2=O)c(C)cc1C)S(=O)(=O)C(F)(F)F , what is its reported Kochia plant response rating?
Result block: 0

Query block: Given the molecule Cc1cc(C)c(C(=O)N2CCC(CC(F)(F)F)CC2)cc1NS(=O)(=O)C(F)(F)F , what is its reported Kochia plant response rating?
Result block: 30

Query block: Given the molecule Cc1cc(F)c(C(=O)N2CCOCC2)cc1N(S(=O)(=O)C(F)(F)F)S(=O)(=O)C(F)(F)F , what is its reported Kochia plant response rating?
Result block: 90

Query block: Given the molecule Cc1cc(C)c(C2=NOC3(CCC3)C2)cc1NS(=O)(=O)C(F)(F)F , what is its reported Kochia plant response rating?
Result block: 90

Query block: Given the molecule Cc1cc(C)c(C(=O)N2CCC(S(C)(=O)=O)CC2)cc1NS(=O)(=O)C(F)(F)F , what is its reported Kochia plant response rating?
Result block: 80

***
Query block: Given the molecule CC(=O)N(c1cc(N2CCC3(CCCCC3)C2=O)c(C)cc1C)S(=O)(=O)C(F)(F)F , what is its reported Kochia plant response rating?
Result block: 90

Query block: Given the molecule Cc1cc(Cl)c(NS(=O)(=O)C(F)(F)F)cc1C(=O)N1CCOCC1C (centres unmarked) , what is its reported Kochia plant response rating?
Result block: 80

Query block: Given the molecule Cc1cc(F)c(C(=O)N2CC(C)OC(C)C2)cc1N(S(=O)(=O)C(F)(F)F)S(=O)(=O)C(F)(F)F (centres unmarked) , what is its reported Kochia plant response rating?
Result block: 50

----------
Tested on: soybean (Glycine max)
test: Test A1 postemergence, soybean
Assay type: in vivo
condition label: Postemergence, 31 g ai/ha; 0 to 100 scale (0 no effect, 100 complete control); 10 days
measured quantity: Plant response rating, Soybean

Example entries begin here.
Query block: Given the compound Cc1c(NS(=O)(=O)C(F)(F)F)cc(C(=O)N2CC(C)OC(C)C2)c(C)c1C (stereo not drawn) [Compound 327] , what is its reported Plant response rating, Soybean?
Result block: 60

Query block: Given the compound Cc1c(C(=O)N2CCOCC2)cc(NS(=O)(=O)C(F)(F)F)c(Cl)c1F [Compound 321] , what is its reported Plant response rating, Soybean?
Result block: 20

Query block: Given the compound Cc1c(NS(=O)(=O)C(F)(F)F)cc(C(=O)N2CCSCC2)c(C)c1C [Compound 283] , what is its reported Plant response rating, Soybean?
Result block: 40

Query block: Given the compound Cc1cc(Br)c(NS(=O)(=O)C(F)(F)F)cc1C1=NOC2(CCCC2)C1 [Compound 309] , what is its reported Plant response rating, Soybean?
Result block: 10

***
Query block: Given the compound COCC1CC(c2cc(N(COC(=O)C(C)(C)C)S(=O)(=O)C(F)(F)F)c(C)cc2C)=NO1 (stereo not drawn) [Compound 338] , what is its reported Plant response rating, Soybean?
Result block: 10

Query block: Given the compound COC1CCCN(C(=O)c2cc(NS(=O)(=O)C(F)(F)F)c(Cl)c(F)c2C)C1 (stereo not drawn) [Compound 334] , what is its reported Plant response rating, Soybean?
Result block: 20

----------
Some molecules, each annotated with its measured Plant response rating, Blackgrass.
System: blackgrass (Alopecurus myosuroides)
test: Test A postemergence, blackgrass
Format: in vivo
condition label: Postemergence, 125 g ai/ha; visual injury approx. 10 days; 0 to 100 scale (0 no effect, 100 complete control)
Please give the numeric answer without any surrounding text.

Example entries begin here.
Query block: Given the molecule COc1cnn(-c2cc(NS(=O)(=O)C(F)(F)F)c(C)cc2C)c(=O)c1 , what is its reported Plant response rating, Blackgrass?
Result block: 0

Query block: Given the molecule COC(=O)N(c1cc(C(=O)N2CCCC(OC)C2)c(C)cc1C)S(=O)(=O)C(F)(F)F (centres unmarked) , what is its reported Plant response rating, Blackgrass?
Result block: 0

Query block: Given the molecule Cc1ccc(-c2ccnn(C)c2=O)cc1N(S(=O)(=O)C(F)(F)F)S(=O)(=O)C(F)(F)F , what is its reported Plant response rating, Blackgrass?
Result block: 0

Query block: Given the molecule Cc1cc(C)c(N(S(C)(=O)=O)S(=O)(=O)C(F)(F)F)cc1-c1cc(Cl)nn(C)c1=O , what is its reported Plant response rating, Blackgrass?
Result block: 0

Query block: Given the molecule Cc1ccc(-c2ccnn(C)c2=O)cc1NS(=O)(=O)C(F)(F)F , what is its reported Plant response rating, Blackgrass?
Result block: 0

Query block: Given the molecule Cc1cc(Cl)c(NS(=O)(=O)C(F)(F)F)cc1C(=O)N1CC(C)OC(C)C1 (centres unmarked) , what is its reported Plant response rating, Blackgrass?
Result block: 30

Query block: Given the molecule Cc1cc(C)c(N(S(C)(=O)=O)S(=O)(=O)C(F)(F)F)cc1-c1ccnn(C)c1=O , what is its reported Plant response rating, Blackgrass?
Result block: 40

Query block: Given the molecule Cc1cc(C)c(N(S(=O)(=O)C(F)(F)F)S(=O)(=O)C(F)(F)F)cc1-c1cn(C)c(=O)n(C)c1=O , what is its reported Plant response rating, Blackgrass?
Result block: 40

Query block: Given the molecule COc1ccnn(-c2cc(NS(=O)(=O)C(F)(F)F)c(C)cc2C)c1=O , what is its reported Plant response rating, Blackgrass?
Result block: 40

Query block: Given the molecule Cc1cc(C)c(-n2ncccc2=O)cc1NS(=O)(=O)C(F)(F)F , what is its reported Plant response rating, Blackgrass?
Result block: 0

Okay, now this molecule:
Query block: Given the molecule Cc1cc(C)c(C2=NOC(C(C)(C)C)C2)cc1NS(=O)(=O)C(F)(F)F (centres unmarked) , what is its reported Plant response rating, Blackgrass?
Result block: 0
